Catalogue of compounds with associated % Dose in Urine
experiment: Two hour rat biolocalization of radionuclide compositions (Tables I, II, III); assay type: in vivo; conditions: tail vein, 2 h, average of five rats

smiles_str=O=P(O)(O)CN(CCN(CP(=O)(O)O)CP(=O)(O)O)CP(=O)(O)O.[153Sm] result="49 % Dose"

Please report the recorded % Dose in Urine for `O=P(O)(O)CN(CCN(CP(=O)(O)O)CP(=O)(O)O)CCN(CP(=O)(O)O)CP(=O)(O)O.[153Sm]` .
74 % Dose

Can you share its % Dose in Urine? I mean this compound: `O=P(O)(O)CN(CCN(CCN(CP(=O)(O)O)CP(=O)(O)O)CCN(CP(=O)(O)O)CP(=O)(O)O)CP(=O)(O)O.[153Sm]`
65 % Dose

# get_value(readout='% Dose in Urine', item= `O=P(O)(O)CN(CCO)CCN(CP(=O)(O)O)CP(=O)(O)O.[153Sm]` )
50 % Dose

###

test: Two hour rat biolocalization of radionuclide compositions (Tables I, II, III); assay type: in vivo; conditions: tail vein, 2 h, average of five rats
Entries and their % Dose in Liver values follow.
Field note: include the unit after the figure.

compound="O=P(O)(O)CN(CCN(CP(=O)(O)O)CP(=O)(O)O)CP(=O)(O)O.[159Gd] [Example 14]" property_measured="% Dose in Liver" result="0.25 % Dose"
compound="O=P(O)(O)CN(CCN(CP(=O)(O)O)CP(=O)(O)O)CCN(CP(=O)(O)O)CP(=O)(O)O.[153Sm] [Example 8]" property_measured="% Dose in Liver" result="0.27 % Dose"
compound="O=P(O)(O)CN(CCN(CCN(CP(=O)(O)O)CP(=O)(O)O)CCN(CP(=O)(O)O)CP(=O)(O)O)CP(=O)(O)O.[153Sm] [Example 10]" property_measured="% Dose in Liver" result="0.18 % Dose"
compound="O=P(O)(O)CN(CCN(CP(=O)(O)O)CP(=O)(O)O)CP(=O)(O)O.[153Sm] [Example 7]" property_measured="% Dose in Liver" result="0.25 % Dose"
compound="O=P(O)(O)CN(CCO)CCN(CP(=O)(O)O)CP(=O)(O)O.[153Sm] [Example 9]" property_measured="% Dose in Liver" result="0.45 % Dose"

Query compound follows.
Request the reported % Dose in Liver associated with O=P(O)(O)CN(CCO)CCN(CP(=O)(O)O)CP(=O)(O)O.[159Gd] [Example 15]
0.57 % Dose

###

Below: a set of entries, each annotated with reported % Dose in Skeleton.
assay: Two hour rat biolocalization of radionuclide compositions (Tables I, II, III); type: in vivo; conditions: tail vein, 2 h, average of five rats
Number in % Dose, nothing else.

See these solved cases before continuing.
smiles_str=O=P(O)(O)CN(CCN(CP(=O)(O)O)CP(=O)(O)O)CCN(CP(=O)(O)O)CP(=O)(O)O.[153Sm] readout_number=30
smiles_str=O=P(O)(O)CN(CCN(CCN(CP(=O)(O)O)CP(=O)(O)O)CCN(CP(=O)(O)O)CP(=O)(O)O)CP(=O)(O)O.[153Sm] readout_number=28
smiles_str=O=P(O)(O)CN(CCN(CP(=O)(O)O)CP(=O)(O)O)CP(=O)(O)O.[153Sm] readout_number=58

Name the reported % Dose in Skeleton value associated with the molecule `O=P(O)(O)CN(CCO)CCN(CP(=O)(O)O)CP(=O)(O)O.[159Gd]`
60

Reported % Dose in Skeleton, molecule `O=P(O)(O)CN(CCN(CP(=O)(O)O)CP(=O)(O)O)CP(=O)(O)O.[159Gd]` : ____
57

% Dose in Skeleton for `O=P(O)(O)CN(CCO)CCN(CP(=O)(O)O)CP(=O)(O)O.[153Sm]` ?
57
